Measured pIC50 of individual entries
test system: HeLa; test: Antiproliferative activity against human HeLa cells assessed as inhibition of cell viability incubated for 48 hrs by CCK8 assay; format: functional, cell-based
pIC50: −log10 of the molar value.
measure: pIC50

CCOC(=O)/C=C/N1c2nc(Cl)nc(Cl)c2N2C(c3ccccc3I)OC(C(=O)OCC)(C(=O)OCC)C12 (racemic) : 4.99
C=C(C(=O)OCC)N1c2nc(Cl)nc(Cl)c2N2C(c3ccccc3Cl)OC(C(=O)OCC)(C(=O)OCC)C12 (racemic) : 5.55
CCOC(=O)/C=C/N1c2nc(Cl)nc(Cl)c2N2C(c3cccc(F)c3)OC(C(=O)OCC)(C(=O)OCC)C12 (racemic) : 5.17
C=C(C(=O)OC)N1c2nc(Cl)nc(Cl)c2N2[C@H](c3ccccc3F)OC(C(=O)OCC)(C(=O)OCC)[C@@H]12 : 6.33
C=C(C(=O)OC)N1c2nc(Cl)nc(Cl)c2N2C(c3ccccc3F)OC(C(=O)OCC)(C(=O)OCC)C12 (racemic) : 6.16
CCOC(=O)/C=C/N1c2nc(Cl)nc(Cl)c2N2C(c3ccccc3C)OC(C(=O)OCC)(C(=O)OCC)C12 (racemic) : 4.91
CCOC(=O)/C=C/N1c2nc(Cl)nc(Cl)c2N2C(c3ccc(Br)cc3)OC(C(=O)OCC)(C(=O)OCC)C12 (racemic) : 4.86
C=C(C(=O)OCC)N1c2nc(Cl)nc(Cl)c2N2C(c3ccccc3Br)OC(C(=O)OCC)(C(=O)OCC)C12 (racemic) : 5.32
CCOC(=O)/C=C/N1c2nc(Cl)nc(Cl)c2N2C(c3ccccc3F)OC(C(=O)OCC)(C(=O)OCC)C12 (racemic) : 5.67

====

assay: Acute toxicity in BALB/c mouse assessed as lethal dose administered intraperitoneally measured for 14 days; conditions: in vivo, route ip, time 14 day
measure: LD50 at 336 h

C=C(C(=O)OC)N1c2nc(Cl)nc(Cl)c2N2C(c3ccccc3F)OC(C(=O)OCC)(C(=O)OCC)C12 (racemic) : 453 mg/kg

====

test: Acute toxicity in BALB/c mouse assessed as death rate at 180 mg/kg, ip measured for 14 days; assay type: organism-based; conditions: both, in vivo, time 14 day, read-out: Activity
measure: mortality at 336 h

C=C(C(=O)OC)N1c2nc(Cl)nc(Cl)c2N2C(c3ccccc3F)OC(C(=O)OCC)(C(=O)OCC)C12 (racemic) : 0%

====

tested on: HCT-116; experiment: Antiproliferative activity against human HCT-116 cells assessed as inhibition of cell viability incubated for 48 hrs by CCK8 assay; type: functional, cell-based; conditions: HCT-116, 48 h
pIC50: −log10 of the molar value.
measure: pIC50

CCCSc1nc(Cl)nc2c1N1C(c3ccccc3)OC(C(=O)OCC)(C(=O)OCC)C1N2/C=C/C(=O)OCC (racemic) : < 4.30
CCOC(=O)/C=C/N1c2nc(Cl)nc(Cl)c2N2C(c3ccccc3)OC(COS(=O)(=O)c3ccc(C)cc3)(COS(=O)(=O)c3ccc(C)cc3)C12 (racemic) : < 4.30
CCOC(=O)/C=C/N1c2nc(Cl)nc(Cl)c2N2C(c3cccc4ccccc34)OC(C(=O)OCC)(C(=O)OCC)C12 (racemic) : < 4.30

====

tested on: HCT-116; assay: Antiproliferative activity against human HCT-116 cells assessed as inhibition of cell viability incubated for 48 hrs by CCK8 assay; type: functional, cell-based; conditions: HCT-116, 48 h
pIC50: −log10 of the molar value.
Label rule, in plain words: pIC50 of 5 and up is fulfilled, under 5 is not fulfilled.

CCOC(=O)/C=C\N1c2nc(Cl)nc(Cl)c2N2C(c3ccccc3)OC(C(=O)OCC)(C(=O)OCC)C12 (centres undefined) : not fulfilled
CCOC(=O)/C=C/N1c2nc(Cl)nc(Cl)c2N2C(c3ccc([N+](=O)[O-])cc3)OC(C(=O)OCC)(C(=O)OCC)C12 (racemic) : fulfilled
CCOC(=O)/C=C/N1c2nc(F)nc(Cl)c2N2C(c3ccccc3)OC(C(=O)OCC)(C(=O)OCC)C12 (racemic) : not fulfilled
CCOC(=O)/C=C/N1c2nc(Cl)nc(Cl)c2N2C(c3ccc(I)cc3)OC(C(=O)OCC)(C(=O)OCC)C12 (racemic) : not fulfilled
CCOC(=O)/C=C/N1c2ncnc(Cl)c2N2C(c3ccccc3)OC(C(=O)OCC)(C(=O)OCC)C12 (racemic) : not fulfilled
C=C(C(=O)OC)N1c2nc(Cl)nc(Cl)c2N2C(c3ccccc3Cl)OC(C(=O)OCC)(C(=O)OCC)C12 (racemic) : fulfilled
CCCSc1ncnc2c1N1C(c3ccccc3)OC(C(=O)OCC)(C(=O)OCC)C1N2/C=C/C(=O)OCC (racemic) : not fulfilled
